# TARGET OF ASSAY: Taq DNA polymerase E491G/R536C/K540C/H784C (UniProt P19821 P19821:1-832, E491G,R536C,K540C,H784C)
# Sequence (P19821 whole entry E491G/R536C/K540C/H784C, one chain of several): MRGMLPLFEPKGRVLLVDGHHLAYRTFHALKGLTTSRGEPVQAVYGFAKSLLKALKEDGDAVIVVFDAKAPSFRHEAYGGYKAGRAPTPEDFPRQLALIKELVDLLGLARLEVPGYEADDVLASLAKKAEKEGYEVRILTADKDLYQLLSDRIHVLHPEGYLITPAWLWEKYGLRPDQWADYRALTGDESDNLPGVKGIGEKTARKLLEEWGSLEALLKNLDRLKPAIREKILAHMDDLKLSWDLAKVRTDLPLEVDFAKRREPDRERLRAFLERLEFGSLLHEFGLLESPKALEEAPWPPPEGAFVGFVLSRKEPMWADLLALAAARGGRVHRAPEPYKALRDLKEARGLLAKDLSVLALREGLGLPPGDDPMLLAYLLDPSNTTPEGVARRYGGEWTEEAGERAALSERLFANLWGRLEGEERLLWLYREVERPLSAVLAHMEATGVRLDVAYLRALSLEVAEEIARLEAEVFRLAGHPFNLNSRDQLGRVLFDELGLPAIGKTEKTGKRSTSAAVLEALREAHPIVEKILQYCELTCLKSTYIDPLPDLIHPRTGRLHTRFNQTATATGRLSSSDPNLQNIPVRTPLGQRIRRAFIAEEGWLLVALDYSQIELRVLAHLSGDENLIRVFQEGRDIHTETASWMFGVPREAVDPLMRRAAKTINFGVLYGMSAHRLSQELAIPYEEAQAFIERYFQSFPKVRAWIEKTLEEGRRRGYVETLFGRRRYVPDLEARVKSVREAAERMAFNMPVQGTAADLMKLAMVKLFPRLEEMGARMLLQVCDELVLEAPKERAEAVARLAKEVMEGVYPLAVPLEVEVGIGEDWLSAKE
# METHOD NOTES: EMSA; 1x TAE with 2 mM EDTA, pH 8.3, 10% glycerol
# STATED CONDITIONS: tags: Fermentas; label: 5'-33P
# Method: […] Affinity of Taq DNA polymerase (FIG. 8A) and its mutants (FIG. 8B-G) for single-stranded DNA (primer) was analyzed as described in Example 7, except that 5′-labeled 24 nt oligonucleotide (5′-[…]) was used instead of 24*/44 nt duplex (FIG. 8).
METRIC: pKd
Answers are plain numbers, as −log10 of the molar value.

// pKd lookup, binder = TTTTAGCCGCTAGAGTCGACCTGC (ssDNA) [24 nt primer] , result: 6.28
